Biological target: T1, human CCR8 (human, UniProt P51685 1-355)
T1 construct: the assay field says which; also called hCCR8; huCCR8
Assay: flow cytometry, CHO-huCCR8.Gna15 cells, relative to rb.Ab5
Description: Evaluation of CCR8 binding of the humanized variants with a hIgG1 Fc involved screening by flow cytometry, and comparing the relative EC₅₀ and MFI on human CCR8 CHO cells to the parental rabbit antibodies. […] Cells were washed twice with FACS buffer, and re-suspended in FACS buffer with propidium iodide (0.5 ug/ml) and analyzed with iQue3 (Sartorius).
Assignment: determine reported Relative EC50 for the given binders.
Report the figure in ratio without appending any unit label.

For the binder shown here, hu.Ab5.H10L1 (antibody, human IgG1, kappa, V domains shown) VH: EQQLLESGGGLVQPGGSLRLSCAVSGIDLSTYAMGWVRQAPGKGLEWIGLIHRSGRTYYATWAKGRFTISKDSSKTTVYLQMNSLRAEDTAVYYCTRSYPDYSATASIWGPGTTVTVSS VL: DIQVTQSPSSLSASVGDRVTITCQASENIANALAWYQQKPGKPPKFLIYGASNLASGVPSRFSGSGSGTDFTFTISSLQPEDIATYYCQQAYYGNSFVEGTFGGGTKVEIKR , give the reported Relative EC50.
1.2

For the binder shown here, rb.Ab5 (antibody, V domains shown, Rabbit variable regions; also called parental rabbit antibody Ab5) VH: QSVEESGGRLVSPGTPLTLTCTVSGIDLSTYAMGWVRQAPGKGLEWIGLIHRSGRTYYATWAKGRFTISKTSSTTVDLKITSPTTEDTATYFCTRSYPDYSATASIWGPGTLVTVSS VL: DIVVTQTPASVEAAVGGTVTIKCQASENIANALAWYQQKSGQPPMFLIYGASNLASGVSSRFKGSGSGTEFTLTISDLECADAAVYYCQCAYYGNSFVEGTFGGGTEVVVK , give the reported Relative EC50.
1

For the binder shown here, hu.Ab5.H8L1 (antibody, human IgG1, kappa, V domains shown) VH: EQQLLESGGGLVQPGGSLRLSCAVSGIDLSTYAMGWVRQAPGKGLEWIGLIHRSGRTYYATWAKGRFTISKDSSKNTVYLQMNSLRAEDTAVYFCTRSYPDYSATASIWGPGTTVTVSS VL: DIQVTQSPSSLSASVGDRVTITCQASENIANALAWYQQKPGKPPKFLIYGASNLASGVPSRFSGSGSGTDFTFTISSLQPEDIATYYCQQAYYGNSFVEGTFGGGTKVEIKR , give the reported Relative EC50.
1.4
